molecular target: Bcl-2-like protein 10 (Homo sapiens); assay: TR3 peptide-Bcl-B binding displacers, biochemical primary FP assay, phenotype converters (AID 1240); details: GST-Bcl-B / FITC-TR3 peptide fluorescence polarization; stronger effect = higher value; compound at 3.75 mg/L;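 further: 0% = Bcl-B with tracer peptide and DMSO and 100% = tracer peptide lacking Bcl-B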
The campaign covered roughly 50,000 compounds. About 800 (1.6%) showed an effect of 50% or more. Many of the other results were omitted from the sample, so strong results are more common in it than they were.
reported metric: displacement (%)
Numbers only, in %.

Here is how some compounds turned out for displacement.
[
  {
    "chem smiles": "Cc1ccc(NC(=O)c2cc3cc([N+](=O)[O-])ccc3oc2=O)cc1",
    "system name": "Bcl-2-like protein 10 (Homo sapiens)",
    "displacement, %": 13.5
  },
  {
    "chem smiles": "C/C(=N/NC(=O)COc1ccc(C)cc1)c1ccc([N+](=O)[O-])cc1",
    "system name": "Bcl-2-like protein 10 (Homo sapiens)",
    "displacement, %": 1.6
  },
  {
    "chem smiles": "C=CCNCCCCOc1ccc(Br)cc1",
    "system name": "Bcl-2-like protein 10 (Homo sapiens)",
    "displacement, %": 8.5
  }
]

Consider the following items and state reported displacement for each.
1. COc1cccc(NC(=O)c2cc(Cl)ccc2Cl)c1
2. Cc1ccc(C(=O)Nc2ccc(-c3nc4ncccc4o3)cc2)cc1C
3. COc1ccc(C/C(N)=N/OC(=O)c2ccccc2Cl)cc1

1: 11.1; 2: 21.5; 3: -0.1

----------
molecular target: Bcl-2-like protein 10 (Homo sapiens) (UniProt Q9HD36); assay: TR3 peptide-Bcl-B binding displacers, biochemical primary FP assay, phenotype converters (AID 1240); details: GST-Bcl-B / FITC-TR3 peptide fluorescence polarization; stronger effect = higher value; compound at 3.75 mg/L;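 further: 0% = Bcl-B with tracer peptide and DMSO and 100% = tracer peptide lacking Bcl-B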
Sequence (Q9HD36 whole entry, looked up): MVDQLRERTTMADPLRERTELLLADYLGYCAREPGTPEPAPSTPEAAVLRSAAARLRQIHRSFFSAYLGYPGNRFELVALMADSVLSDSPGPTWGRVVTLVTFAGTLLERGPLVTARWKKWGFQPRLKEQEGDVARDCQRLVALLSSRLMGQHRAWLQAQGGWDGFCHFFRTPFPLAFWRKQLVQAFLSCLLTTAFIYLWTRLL
The whole screen tested about 50,000 compounds, of which about 800 (1.6%) showed an effect of 50% or more. For the sample, strong results were picked, then their nearest neighbours and some compounds at random.
reported metric: displacement (%)
Numbers only, in %.

Consider the following illustrative entries.
[
  {
    "compound": "COc1ccc(/C=C2\\C=C(c3ccc(C)cc3)OC2=O)cc1[N+](=O)[O-]",
    "system name": "Bcl-2-like protein 10 (Homo sapiens) (UniProt Q9HD36)",
    "displacement (%)": 6.6
  },
  {
    "compound": "O=C1/C(=C/c2ccccc2[N+](=O)[O-])SC(=S)N1Cc1ccco1",
    "system name": "Bcl-2-like protein 10 (Homo sapiens) (UniProt Q9HD36)",
    "displacement (%)": 16.5
  },
  {
    "compound": "CCc1ccc(N2C(=O)NC(=O)/C(=C\\c3ccc(OCC(=O)O)c(OC)c3)C2=O)cc1",
    "system name": "Bcl-2-like protein 10 (Homo sapiens) (UniProt Q9HD36)",
    "displacement (%)": 9.9
  }
]

Please go through the list and note displacement for each compound.
1. COc1cc(OC)c([N+](=O)[O-])cc1/C=C1\C=C(c2ccc(Br)cc2)OC1=O
2. O=C1/C(=C/c2cccc3ccccc23)SC(=S)N1Cc1ccco1
3. COc1ccc(C2=C/C(=C\c3ccc(OC)c([N+](=O)[O-])c3)C(=O)O2)cc1
4. CCCCN1C(=O)/C(=C/C=C/c2ccccc2)SC1=S
5. O=C1N/C(=N/N=C/c2ccccc2O)SC1Cc1ccccc1 (stereo not given)

1. 49.1
2. 79.2
3. 2.7
4. -0.6
5. 1.4

Provide each entry's displacement from the list below.
1. CCC1S/C(=N/N=C/c2ccc3c(c2)OCO3)NC1=O (stereo not given)
2. CCC1S/C(=N\N=C\c2cccc3ccccc23)NC1=O (stereo not given)

1. -13.8
2. 127

----------
target: Bcl-2-like protein 10 (Homo sapiens); experiment: TR3 peptide-Bcl-B binding displacers, biochemical primary FP assay, phenotype converters (AID 1240); conditions: GST-Bcl-B / FITC-TR3 peptide fluorescence polarization; stronger effect = higher value; compound at 3.75 mg/L;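 further: 0% = Bcl-B with tracer peptide and DMSO and 100% = tracer peptide lacking Bcl-B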
The campaign covered roughly 50,000 compounds. About 800 (1.6%) showed an effect of 50% or more. This excerpt belongs to a sample that is enriched for strong results.
Please go through the items and note down their displacement.
Numbers only, in %.

Example entries and their recorded answers appear below.
[
  {
    "chem smiles": "O=C(Nc1ccc2nn(-c3ccc(Cl)cc3)nc2c1)c1ccccc1I",
    "system name": "Bcl-2-like protein 10 (Homo sapiens)",
    "displacement [%]": 7.4
  },
  {
    "chem smiles": "COc1ccc(-n2nc3ccc(NC(=O)COc4ccccc4Cl)cc3n2)cc1",
    "system name": "Bcl-2-like protein 10 (Homo sapiens)",
    "displacement [%]": 19.9
  },
  {
    "chem smiles": "O=C(COc1ccc(Br)cc1)Nc1ccc2nn(-c3ccc(F)cc3)nc2c1",
    "system name": "Bcl-2-like protein 10 (Homo sapiens)",
    "displacement [%]": 50.3
  },
  {
    "chem smiles": "O=C(COc1ccccc1)Nc1ccc2nn(-c3ccc(Cl)cc3)nc2c1",
    "system name": "Bcl-2-like protein 10 (Homo sapiens)",
    "displacement [%]": 6.3
  }
]

Now turn to the next compound.
Using the record for `O=C(COc1ccc([N+](=O)[O-])cc1)Nc1ccc2nn(-c3ccc(F)cc3)nc2c1` , report its displacement.
9

----------
target: Bcl-2-like protein 10 (Homo sapiens); assay: TR3 peptide-Bcl-B binding displacers, biochemical primary FP assay, phenotype converters (AID 1240); settings: GST-Bcl-B / FITC-TR3 peptide fluorescence polarization; stronger effect = higher value; compound at 3.75 mg/L;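 further: 0% = Bcl-B with tracer peptide and DMSO and 100% = tracer peptide lacking Bcl-B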
Screen size: about 50,000 compounds; about 800 (1.6%) showed an effect of 50% or more. The list comes from a sample in which strong results are over-represented; it also holds close analogues and randomly drawn compounds.
Please provide measured displacement for the entries that follow.
Answers are plain numbers, in %.

[
  {
    "chem smiles": "O=C(COc1cccc2ccccc12)NCc1cccnc1",
    "system name": "Bcl-2-like protein 10 (Homo sapiens)",
    "displacement (%)": 8.3
  },
  {
    "chem smiles": "Cc1cc(Nc2ccc3c(c2)n(C)c(=O)n3C)n2c(nc3ccccc32)c1C#N",
    "system name": "Bcl-2-like protein 10 (Homo sapiens)",
    "displacement (%)": 22.5
  },
  {
    "chem smiles": "NC(=O)c1ccc(NC(=O)COc2ccccc2Cl)cc1",
    "system name": "Bcl-2-like protein 10 (Homo sapiens)",
    "displacement (%)": -2
  },
  {
    "chem smiles": "O=C(c1cccc([N+](=O)[O-])c1)c1ccc2c(c1)C(=O)N(c1ccccc1C(=O)O)C2=O",
    "system name": "Bcl-2-like protein 10 (Homo sapiens)",
    "displacement (%)": -2.7
  },
  {
    "chem smiles": "Cc1cc(NCCCCO)n2c(nc3ccccc32)c1C#N",
    "system name": "Bcl-2-like protein 10 (Homo sapiens)",
    "displacement (%)": 25.9
  }
]

Batch of 6 compounds: report displacement for each.
1. O=C1NC(=S)N/C1=C\c1ccccc1
2. Cc1cc(NCCCO)n2c(nc3ccccc32)c1C#N
3. CCOc1cc(/C=C2\C(=O)NC(=O)N(c3ccc(Cl)cc3)C2=O)cc(Cl)c1OCC(=O)O
4. O=C(CCN1C(=O)c2ccccc2C1=O)NC1CCCC1
5. O=C(Oc1ccc(/C=N/O)cc1)c1ccc(Br)cc1
6. CCOc1ccc(NC2=C(Cl)C(=O)N(c3cccc(Cl)c3Cl)C2=O)cc1

1. 0.7
2. 160
3. -2.8
4. 8.5
5. 1.6
6. 16.3

----------
molecular target: Bcl-2-like protein 10 (Homo sapiens) (UniProt Q9HD36); test: TR3 peptide-Bcl-B binding displacers, biochemical primary FP assay, phenotype converters (AID 1240); conditions: GST-Bcl-B / FITC-TR3 peptide fluorescence polarization; stronger effect = higher value; compound at 3.75 mg/L;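 further: 0% = Bcl-B with tracer peptide and DMSO and 100% = tracer peptide lacking Bcl-B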
Hit rate of the full screen: of about 50,000 compounds, about 800 (1.6%) showed an effect of 50% or more. The list comes from a sample in which strong results are over-represented; it also holds close analogues and randomly drawn compounds.
reported metric: displacement (%)
One number for each entry, in %.

Go through the list and state displacement for each entry.
1. O=C(Nc1cc(Cl)cc(Cl)c1)c1ccc(CN2CCc3ccccc3C2)cc1
2. COc1ccc(CCN2C(=O)C3C4c5ccccc5C(C)(c5ccccc54)C3C2=O)cc1OC (stereo not drawn)

1. -3.7
2. -1.3

----------
molecular target: Bcl-2-like protein 10 (Homo sapiens) (UniProt Q9HD36); assay: TR3 peptide-Bcl-B binding displacers, biochemical primary FP assay, phenotype converters (AID 1240); settings: GST-Bcl-B / FITC-TR3 peptide fluorescence polarization; stronger effect = higher value; compound at 3.75 mg/L;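 further: 0% = Bcl-B with tracer peptide and DMSO and 100% = tracer peptide lacking Bcl-B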
About 800 (1.6%) of roughly 50,000 compounds showed an effect of 50% or more. What follows is part of a selection rich in strong results, with near analogues and random picks from the rest.
reported metric: displacement (%)
Numbers only, in %.

[
  {
    "molecule": "COc1ccc(Cn2c(O)c(/C=C3\\C=CC=N3)c(=O)[nH]c2=O)cc1",
    "units label": "%",
    "displacement": 12.5
  }
]

Consider the following items and state reported displacement for each.
1. Cn1c(=O)c(C2=NS(=O)(=O)c3ccccc3N2)c(O)c2ccccc21
2. CCOc1ccc(S(=O)(=O)N(CC(=O)NC)c2ccc(C)cc2)cc1
3. CCCOC(=O)c1c(NC(=O)c2c(-c3ccccc3)noc2C)sc2c1CCCCC2
4. COC(=O)c1c(-c2cc(C)ccc2C)csc1N
5. O=C(Nc1ccccc1Br)C1CC(=O)N(c2ccccc2)C1 (stereo not drawn)
6. CCCCOc1ccc(C=C2C(=O)N(C)C(=O)N(C)C2=O)cc1

1: 2.1; 2: 1.7; 3: -7.2; 4: -6.2; 5: 77.5; 6: 8.8

Below is a list of molecules. For each, state its recorded displacement.
1. Cc1cc(C)nc(NS(=O)(=O)c2ccc(NC(=S)NC(=O)c3ccc(Br)cc3)cc2)n1
2. Cc1nc(-c2ccccc2)nc2[nH]ccc(=O)c12
3. CN1C(=O)C(=Cc2ccc(N3CCOCC3)cc2)C(=O)N(C)C1=O
4. COc1ccc(N2C(=O)/C(=C\C(Br)=C\c3ccccc3)SC2=S)cc1
5. O=c1[nH]c(=O)n(-c2ccc(Br)cc2)c(O)c1C=C1C=CC=N1
6. CCCc1c(C)nc2c(Cl)cccc2c1SCC(=O)O
7. Cc1ccccc1NC(=O)C1CC(=O)N(c2ccccc2)C1 (stereo not drawn)

1: 2.6; 2: 11.9; 3: 8.9; 4: 5.6; 5: 123; 6: -1.7; 7: 6.2

Look at each molecule and report its displacement.
1. Cc1nc(-c2ccccc2)c2c(=O)cc[nH]c2n1
2. O=C(C1CCCC1)N1CCN(c2ccc(F)cc2)CC1

[15.4, -0.9]

Hey, quick one: what's displacement for each of these?
1. O=[N+]([O-])c1ccc(COc2ccccc2/C=N/Nc2nc3ccccc3s2)cc1
2. COc1cccc(-c2csc(/C(C#N)=C/c3ccc(C)o3)n2)c1
3. O=C1NC(=O)N(c2ccccc2F)C(=O)/C1=C/c1ccc(I)o1
4. O=c1[nH]c(=O)n(-c2cccc(C(F)(F)F)c2)c(O)c1C=C1C=CC=N1
5. CC1(C)Nc2ccccc2N(CCC(=O)N2CCOCC2)C1=O

1. -2.1
2. -113
3. 34.5
4. 6.3
5. 9

Give displacement for each listed item.
1. O=C(O)CSCCCN1C(=O)c2cccc3cccc(c23)C1=O
2. O=C1C(Cl)=C(Nc2ccccc2)C(=O)N1c1ccc(Br)cc1

8
6.4
